# System: Candida albicans
# method notes: Antifungal activity against Candida albicans clinical isolate by NCCLS broth microdilution method
# Assay type: functional
result type: MIC (µg/mL)
Quick reminder: number only, in µg/mL, skip the unit.

Exercise: If you can, please state the reported MIC value of Fc1ccc(Cl)cc1I .
Key: 2500

Exercise: Recorded MIC of Fc1cc(Cl)ccc1Cl , please.
Key: 2000

Exercise: Given the compound Fc1ccc(Cl)cc1Br , what is its reported MIC?
Key: 2500

Exercise: For Fc1ccc(Cl)cc1Cl , what is its reported MIC?
Key: 1

Exercise: Please give the measured MIC for this compound: Fc1cc(Cl)ccc1I
Key: 2500

Exercise: Reported MIC for Fc1cc(Cl)ccc1Br : what is it?
Key: 2500

----------
Could you please report measured zone of inhibition at 5000 µg/mL for the items listed next?
# System: Staphylococcus aureus
# method notes: Antibacterial activity against Staphylococcus aureus ATCC 25923 at 5 mg/ml after 24 hr by disk diffusion method
# Type: functional
# condition info: ATCC 25923, 24 h, read-out: DIZ
The reply should contain only the number, in mm.

Exercise: GET /values?readout=zone of inhibition at 5000 µg/mL&item= Fc1ccc(Cl)cc1Cl
Key: 15

Exercise: Need zone of inhibition at 5000 µg/mL of Fc1cc(Cl)ccc1Cl , thanks.
Key: 15

Exercise: Recorded zone of inhibition at 5000 µg/mL for Fc1cc(Cl)ccc1Br , please?
Key: 14

Exercise: Looking for the measured zone of inhibition at 5000 µg/mL of Fc1cc(Cl)ccc1I , can you help?
Key: 12

Exercise: What value of measured zone of inhibition at 5000 µg/mL is listed for Fc1ccc(Cl)cc1I ?
Key: 13

----------
For each of the molecules below, state its MIC.
# Test system: Staphylococcus aureus
# method notes: Antibacterial activity against Staphylococcus aureus ATCC 25923 by NCCLS broth microdilution method
# Format: functional
Kindly answer with a numeric value in µg/mL, unit omitted.

Exercise: Given the molecule Fc1ccc(Cl)cc1Cl [2,4-DICHLOROFLUOROBENZENE] , what is its reported MIC?
Key: 1200

Exercise: Which MIC value is on record for Fc1ccc(Cl)cc1I ?
Key: 2000

Exercise: Given the entry Fc1cc(Cl)ccc1Br , report its measured MIC.
Key: 2500

Exercise: Please report the recorded MIC for Fc1cc(Cl)ccc1Cl [2,5-DICHLOROFLUOROBENZENE] .
Key: 2500

Exercise: Name the recorded MIC for Fc1cc(Cl)ccc1I .
Key: 2500

Exercise: Entry under review: Fc1ccc(Cl)cc1Br . Reported MIC?
Key: 2500
